Assay: SK-BR-3 cell growth inhibitors, pilot screen, 24 h, human (AID 572);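 note: compound exposure lasted between 18 and 24 h rather than exactly 24 h; 100% = carrier-treated control wells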
Settings: SK-BR-3 viability, CellTiter-Glo luminescence, at 10 µM, stronger effect = lower value
Below, each entry is listed alongside its reported viability.

Molecule: CCOC(=O)N1CCC(n2c(=S)[nH]c3cc(OC)c(OC)cc3c2=O)CC1
viability / %: 114

Molecule: Cc1csc(NC(=O)c2ccoc2C)n1
viability / %: 103

Molecule: COC(=O)C1C2C=CC3(CN(CC4CCCO4)C(=O)C13)O2 (stereo not given)
viability / %: 78

Molecule: CS(=O)(=O)N(Cc1ccccc1)c1ccc(C(=O)N2CCOCC2)cc1
viability / %: 95

Molecule: CCCc1cc(N2CCCC2)n2nc(C)c(-c3ccccc3)c2n1
viability / %: 64

Molecule: C/C=C(\C)c1nnc(NC(=O)OCC)s1
viability / %: 94

Molecule: O=C(c1ccc(F)cc1)C1CCN(CCn2c(=O)[nH]c3ccccc3c2=O)CC1
viability / %: 94

Molecule: Cn1c(CN2CCOCC2)nnc1SCC(=O)NCCc1ccccc1
viability / %: 104

Molecule: CCOC(=O)C1CCCN(C(=O)c2cc3c(-c4cccc(OC)c4)nn(C)c3s2)C1 (stereo not given)
viability / %: 115

Molecule: O=C(CSc1nc2ccccc2c(=O)n1Cc1ccco1)NCc1ccccc1
viability / %: 72

Molecule: O=C(CCn1c(=O)sc2ccccc21)NCc1ccc2c(c1)OCO2
viability / %: 75

Molecule: Cc1ccc(C)c(S(=O)(=O)C(C#N)c2nc3ccccc3nc2N2CC(C)OC(C)C2)c1 (stereo not given)
viability / %: 91

Molecule: Cc1ccc(S(=O)(=O)N2CCN(C(=O)N3CCOCC3)C2c2ccc(N(C)C)cc2)cc1 (stereo not given)
viability / %: 106

Molecule: COc1ccccc1OCc1nc2ccccc2[nH]1
viability / %: 69

Molecule: Cn1c(SCC(=O)c2ccc(-c3ccccc3)cc2)nnc1-c1ccco1
viability / %: 120

Molecule: COCCN(CCOC)C(=O)CCn1c(=O)oc2ccccc21
viability / %: 95

Molecule: O=C1OCCC1Sc1ncnc2sccc12 (stereo not given)
viability / %: 78

Molecule: COc1ccc(Cn2c(=O)[nH]c3cc(C(=O)NCCCN4CCCC4)ccc3c2=O)cc1
viability / %: 106

Molecule: O=C(NC1CCc2ccccc21)C1CCN(S(=O)(=O)c2ccc(-n3cnnn3)cc2)CC1 (stereo not given)
viability / %: 74.5

Molecule: COc1cccc(NS(=O)(=O)c2ccc3[nH]cc(C(=O)NC4CC4)c(=O)c3c2)c1
viability / %: 101

Molecule: COc1cccc(-n2c(CNc3ccc(F)cc3)nnc2SCC(N)=O)c1
viability / %: 115

Molecule: O=C(CSc1ccccc1C(=O)NCCCN1CCCC1=O)NCc1ccco1
viability / %: 108

Molecule: CC(=O)NCCCCCCNC(C)=O
viability / %: 125

Molecule: COc1cc(C(=O)OC(C)CN2CCCC2)cc(OC)c1OC (stereo not given)
viability / %: 99

Molecule: O=C1CN(C(=O)COC(=O)C23CC4CC(CC(O)(C4)C2)C3)c2ccccc2N1
viability / %: 115

Molecule: Cc1nccn1CCCN1C(=O)OC2(CCCCC2)C1(C)O (stereo not given)
viability / %: 90

Molecule: COc1ccc(OC)c(S(=O)(=O)N2CCC(C(=O)NCc3ccccc3OC)CC2)c1
viability / %: 101

Molecule: Cc1nn(-c2ccccc2)c2[nH]c(C(F)(F)F)cc(=O)c12
viability / %: 131

Molecule: CCn1c(SCC(=O)Nc2cc(C)on2)nc2sc3c(c2c1=O)CCCC3
viability / %: 91

Molecule: Cc1cc(C(=O)Nc2cccnc2)no1
viability / %: 99

Molecule: Cn1c(=O)cc(SCC(=O)NCc2cccnc2)c2ccccc21
viability / %: 92

Molecule: CC(C)(C)N=C1NC(=NC(C)(C)C)c2ccccc21
viability / %: 77

Molecule: CCOc1ccc(C2C(C#N)=C(N)Oc3cc(C)n(Cc4ccco4)c(=O)c32)cc1OC (stereo not given)
viability / %: 99

Molecule: N#CC1=C(N)n2c(s/c(=C\c3ccco3)c2=O)=C(C#N)C1c1ccco1 (stereo not given)
viability / %: 100

Molecule: Cc1cc(C)cc(N2C(=O)C3C4C=CC(C4)C3C2=O)c1 (stereo not given)
viability / %: 100

Attribution: PubChem BioAssay
